Field: MIC. Provide a value for each of the compounds that follow.
Test system: S. aureus Col8A (Meth^S)(lac^-)
Experiment: In vitro antibacterial evaluation, MIC by agar dilution, S. aureus Col8A
Assay type: cell-based
Run Parameters: Staphylococcus aureus
Structures can show the parent of a compound that is named as a salt.

Lookup result for CN(C)C(SCc1ccc(SC2=C(C(=O)[O-])N3C(=O)[C@@H](NC(=O)Cc4ccccc4)[C@H]3SC2)c(I)c1)=[N+](C)C [Cmpd 62] ; measured MIC: < 0.25 µg/mL

Form field MIC, entry N=C(N)SCc1ccc(SC2=C(C(=O)O)N3C(=O)[C@@H](NC(=O)Cc4ccccc4)[C@H]3SC2)cc1 [Cmpd 63] : < 0.25 µg/mL

Record O=C(Cc1ccccc1)N[C@@H]1C(=O)N2C(C(=O)O)=C(Sc3cccc4oc5ccccc5c34)CS[C@H]12 [Cmpd 21] . Reported MIC: < 0.25 µg/mL

Given item CO/N=C(\C(=O)N[C@@H]1C(=O)N2C(C(=O)O)=C(COC(C)=O)CS[C@H]12)c1csc(N)n1 [Cefotaxime, reference compound] , the value recorded as its MIC is 2 µg/mL

# MIC of N#Cc1ccc(SC2=C(C(=O)O)N3C(=O)[C@@H](NC(=O)Cc4ccccc4)[C@H]3SC2)c([N+](=O)[O-])c1 [Cmpd 49] = 0.5 µg/mL

// field: MIC; key: N#CCC(=O)N[C@@H]1C(=O)N2C(C(=O)O)=C(Sc3ccccc3I)CS[C@H]12 [Cmpd 17] ; value = < 0.25 µg/mL

Input CCCCCC(=O)N[C@@H]1C(=O)N2C(C(=O)O)=C(Sc3ccnn3-c3ccccc3)CS[C@H]12 [Cmpd 109] . Output MIC: 0.125 µg/mL

Notebook: N=C(N)SCc1ccccc1SC1=C(C(=O)O)N2C(=O)[C@@H](NC(=O)Cc3ccccc3CN)[C@H]2SC1 [Cmpd 101, trifluoroacetic acid salt] , MIC read as 0.25 µg/mL

The compound identified as N#CCC(=O)N[C@@H]1C(=O)N2C(C(=O)O)=C(Sc3cccnc3-c3ccccc3)CS[C@H]12 [Cmpd 85] registered its MIC at < 0.25 µg/mL

So, O=C(CSc1ccccc1)N[C@@H]1C(=O)N2C(C(=O)O)=C(Sc3cc(Cl)ccc3Cl)CS[C@H]12 [Cmpd 35] ? Its MIC was < 0.25 µg/mL

Data point: O=C(CSc1ccncc1)N[C@@H]1C(=O)N2C(C(=O)O)=C(Sc3ccnn3-c3ccccc3)CS[C@H]12 [Cmpd 110] ; MIC = 0.25 µg/mL

Item: O=C(Cc1ccccc1)N[C@@H]1C(=O)N2C(C(=O)[O-])=C(Sc3ccc[n+](Cc4ccccc4)c3-c3ccccc3)CS[C@H]12 [Cmpd 83] | MIC: < 0.25 µg/mL

Lab note: Cc1nnc(SCc2ccccc2SC2=C(C(=O)O)N3C(=O)[C@@H](NC(=O)Cc4ccccc4)[C@H]3SC2)s1 [Cmpd 77] gave MIC of < 0.25 µg/mL

Note to self: MIC recorded for O=C(Cc1ccccc1)N[C@@H]1C(=O)N2C(C(=O)O)=C(Sc3ccccc3-c3cnco3)CS[C@H]12 [Cmpd 95] was < 0.25 µg/mL
